- TARGET_OR_TEST_SYSTEM: hα7 AChRs (Homo sapiens, UniProt P36544)
- Assay type: cell-based
READOUT_KIND: IC50 (µM)
Lab book: enter the figure in µM, no units written.

Qu. Recorded IC50 for CN(C)CCCC1(c2ccc(F)cc2)OCc2cc(C#N)ccc21 (racemic) [(±)-citalopram] with hα7 AChRs (Homo sapiens, UniProt P36544), please?
Ans. 18.8

---

- TARGET_OR_TEST_SYSTEM: hα3β4 AChRs ([3H]imipramine sites) (Homo sapiens, UniProt P30926+P32297)
- ASSAY_REMARKS: [3H]Imipramine competition binding to hα3β4 AChR-containing membranes
READOUT_KIND: Ki
Report field: quantity (unit follows the number).

Qu. Could you share which Ki value was measured for CN(C)CCCC1(c2ccc(F)cc2)OCc2cc(C#N)ccc21 (racemic) [(±)-citalopram] ?
Ans. 1800 nM

---

- TARGET_OR_TEST_SYSTEM: hα4β2 AChRs ([3H]imipramine sites) (Homo sapiens, UniProt P17787+P43681)
- ASSAY_REMARKS: [3H]Imipramine competition binding to hα4β2 AChR-containing membranes
- DETAILS: Ki (binding affinity), resting state, in the presence of 0.1 κ-bungarotoxin
READOUT_KIND: Ki (µM)
Lab book: enter the figure in µM, no units written.

Qu. Recorded Ki for CN(C)CCCC1(c2ccc(F)cc2)OCc2cc(C#N)ccc21 (racemic) [(±)-citalopram] with hα4β2 AChRs ([3H]imipramine sites) (Homo sapiens, UniProt P17787+P43681), please?
Ans. 5.9

---

- TARGET_OR_TEST_SYSTEM: rα9α10 AChRs (Rattus norvegicus, UniProt P43144+Q9JLB5)
READOUT_KIND: IC50 (µM)
Lab book: enter the figure in µM, no units written.

Qu. Recorded IC50 for CN(C)CCCC1(c2ccc(F)cc2)OCc2cc(C#N)ccc21 (racemic) [(±)-citalopram] with rα9α10 AChRs (Rattus norvegicus, UniProt P43144+Q9JLB5), please?
Ans. 7.5
